TESTED_ON: EGFR (Homo sapiens)
Construct: Add 7 ug A431 cell lysate per well (EGFR source); endogenous in cells; host or cells: A431
Sequence (P00533 25-1210): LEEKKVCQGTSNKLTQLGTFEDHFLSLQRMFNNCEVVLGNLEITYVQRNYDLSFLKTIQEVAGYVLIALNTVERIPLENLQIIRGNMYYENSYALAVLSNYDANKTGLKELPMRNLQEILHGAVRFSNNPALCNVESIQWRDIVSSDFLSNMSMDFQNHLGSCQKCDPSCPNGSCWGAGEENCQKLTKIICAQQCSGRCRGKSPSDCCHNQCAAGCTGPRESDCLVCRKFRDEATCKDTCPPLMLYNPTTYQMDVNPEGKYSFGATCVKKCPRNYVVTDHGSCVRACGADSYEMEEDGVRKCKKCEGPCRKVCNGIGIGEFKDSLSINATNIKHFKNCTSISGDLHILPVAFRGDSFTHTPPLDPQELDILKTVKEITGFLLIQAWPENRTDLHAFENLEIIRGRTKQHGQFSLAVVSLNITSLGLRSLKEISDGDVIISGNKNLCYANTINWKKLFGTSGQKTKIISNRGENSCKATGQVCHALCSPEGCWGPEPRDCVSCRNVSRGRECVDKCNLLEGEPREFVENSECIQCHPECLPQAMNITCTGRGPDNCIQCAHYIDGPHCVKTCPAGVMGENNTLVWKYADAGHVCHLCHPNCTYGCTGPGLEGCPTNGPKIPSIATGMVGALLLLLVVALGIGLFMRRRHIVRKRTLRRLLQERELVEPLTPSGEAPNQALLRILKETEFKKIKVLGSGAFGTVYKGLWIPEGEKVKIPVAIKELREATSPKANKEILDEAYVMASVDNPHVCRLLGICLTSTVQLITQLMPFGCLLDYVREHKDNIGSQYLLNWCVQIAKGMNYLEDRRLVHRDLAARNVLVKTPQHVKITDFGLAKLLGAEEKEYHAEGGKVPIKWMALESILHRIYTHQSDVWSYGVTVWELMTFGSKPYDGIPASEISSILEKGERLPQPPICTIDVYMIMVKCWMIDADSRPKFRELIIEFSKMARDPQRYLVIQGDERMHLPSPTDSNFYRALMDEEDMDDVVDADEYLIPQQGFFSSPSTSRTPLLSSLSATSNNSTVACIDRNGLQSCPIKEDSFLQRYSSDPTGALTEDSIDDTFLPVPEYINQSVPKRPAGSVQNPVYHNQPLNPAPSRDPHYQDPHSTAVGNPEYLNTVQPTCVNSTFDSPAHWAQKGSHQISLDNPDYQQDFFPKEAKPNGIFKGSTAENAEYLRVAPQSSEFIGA
PROCEDURE_SUMMARY: EGFR ELISA assay (in vitro kinase activity, EGFR captured from A431 cell lysate)
Type: biochemical
Set-up: concentration or dose not given beside the values
Each record here notes measured Biochem EGFR %Inhibition.
MEASURE: Biochem EGFR %Inhibition (%)

| COMPOUND | UNIT_OF_MEASURE | MEASURED_NUMBER |
| --- | --- | --- |
| COc1c(Br)cc(C=C2C(=O)Nc3ccc(Br)c(C)c32)cc1C(C)(C)C | % | -28.6 |
| COc1c([N+](=O)[O-])cc(C=C2C(=O)Nc3c(Br)cc(Br)cc32)cc1C(C)(C)C | % | 33.6 |
| COC(=O)c1[nH]c(C)c(C=C2C(=O)Nc3ccc(S(=O)(=O)Nc4ccc(C(F)(F)F)cc4)cc32)c1C(=O)OC | % | 13.9 |
| COc1cccc(O)c1C=C1C(=O)Nc2ccc(S(=O)(=O)Nc3ccc(C(F)(F)F)cc3)cc21 | % | -6.1 |
| CCOc1cc(C=C2C(=O)Nc3ccc(S(=O)(=O)Nc4ccc(C(F)(F)F)cc4)cc32)ccc1O | % | 56.4 |
| O=C1Nc2ccc(S(=O)(=O)Nc3ccc(C(F)(F)F)cc3)cc2C1=Cc1ccc(O)c([N+](=O)[O-])c1 | % | 33.1 |
| O=C1Nc2ccc(I)cc2C1=Cc1ccc[nH]1 | % | 78.3 |
| COC(=O)Cc1c(Cl)[nH]c(C=C2C(=O)Nc3c(Br)cc(Br)c(C)c32)c1C(=O)OC | % | 4.9 |
| Cc1c(Br)ccc2c1C(=Cc1cc(Br)cc(Br)c1O)C(=O)N2 | % | 41.0 |
| CC(C)(C)c1ccc(C=C2C(=O)Nc3ccc(S(=O)(=O)Nc4ccc(C(F)(F)F)cc4)cc32)cc1 | % | -5.0 |
| CC(C)(C)c1cc(C=C2C(=O)Nc3ccc(S(=O)(=O)Nc4ccc(C(F)(F)F)cc4)cc32)cc(C(C)(C)C)c1OCc1ccccc1 | % | 58.3 |
| COc1ccc(C=C2C(=O)Nc3ccc(CCCl)cc32)c(OC)c1 | % | -4.7 |
| COc1cccc(C=C2C(=O)Nc3ccc(Br)c(C)c32)c1OC | % | -15.6 |
| O=C1Nc2c(Br)cc(Br)cc2C1=Cc1ccc([N+](=O)[O-])cc1 | % | -6.4 |
| COc1c(Br)cc(C=C2C(=O)Nc3ccc(S(=O)(=O)Nc4ccc(C(F)(F)F)cc4)cc32)cc1C(C)(C)C | % | -8.5 |
| Cc1c(Br)ccc2c1C(=Cc1cc(O)c3c(c1O)CCCC3)C(=O)N2 | % | 40.8 |
| Cc1ccc(C=C2C(=O)Nc3ccc(S(=O)(=O)Nc4ccc(C(F)(F)F)cc4)cc32)o1 | % | 31.2 |
| O=C1Nc2c(Br)cc(Br)cc2C1=Cc1cc2ccccc2nc1Cl | % | 10.4 |
| C=C(C)C1CC=C(C=C2C(=O)Nc3ccc(CCCl)cc32)CC1 (stereo not shown) | % | 7.1 |
| CCOC(=O)c1cc(C=C2C(=O)Nc3ccc(S(=O)(=O)Nc4ccc(C(F)(F)F)cc4)cc32)oc1C | % | 2.0 |
| COc1c(C(C)C)cc(C=C2C(=O)Nc3ccc(S(=O)(=O)N4CCOCC4)cc32)cc1C(C)C | % | 54.1 |
| Cc1c(Br)ccc2c1C(=Cc1sccc1Br)C(=O)N2 | % | -43.4 |
| COc1ccc(OC)c(C=C2C(=O)Nc3ccc(Br)c(C)c32)c1 | % | -35.4 |
| O=C1Nc2ccc(S(=O)(=O)Nc3ccc(C(F)(F)F)cc3)cc2C1=Cc1ccc(N2CCOCC2)cc1 | % | 14.2 |
| O=C1Nc2ccc(I)cc2C1=Cc1cc2c(cc1Cl)OCO2 | % | 40.7 |
| O=C1Nc2ccc(CCCl)cc2C1=Cc1sccc1Br | % | -20.5 |
| COc1ccc(C=C2C(=O)Nc3ccc(I)cc32)c(OC)c1OC | % | 10.4 |
| CCOc1ccccc1C=C1C(=O)Nc2ccc(I)cc21 | % | 31.7 |
| COc1cc(Br)cc(C=C2C(=O)Nc3c(Br)cc(Br)cc32)c1O | % | 19.5 |
| Cc1c(O)ccc(C=C2C(=O)Nc3ccc(S(=O)(=O)N4CCOCC4)cc32)c1O | % | -9.5 |
| CNS(=O)(=O)c1ccc2c(c1)C(=Cc1cc(C)c(C)o1)C(=O)N2 | % | 2.0 |
| COc1ccc(C=C2C(=O)Nc3ccc(CCCl)cc32)cc1C(C)(C)C | % | 3.8 |
| O=C1Nc2ccc(S(=O)(=O)Nc3ccc(C(F)(F)F)cc3)cc2C1=Cc1ccc2c(c1)Cc1ccccc1-2 | % | -4.7 |
| O=C1Nc2ccc(S(=O)(=O)Nc3ccc(C(F)(F)F)cc3)cc2C1=Cc1c[nH]c2ccccc12 | % | -26.1 |
